molecular target: human GluN1/GluN2B NMDA receptors (Homo sapiens, UniProt Q13224); construct: expressed in transfected cells; assay: Calcium flux (FLIPR) assay on cloned human GluN1/GluN2B ion channels expressed in mammalian cells, standard assay; assay type: cell-based; conditions: glutamate ~EC40, 10 μM glycine, stable cell line with Tet-On induced expression
Sequence (Q13224 27-1484, other chains not shown): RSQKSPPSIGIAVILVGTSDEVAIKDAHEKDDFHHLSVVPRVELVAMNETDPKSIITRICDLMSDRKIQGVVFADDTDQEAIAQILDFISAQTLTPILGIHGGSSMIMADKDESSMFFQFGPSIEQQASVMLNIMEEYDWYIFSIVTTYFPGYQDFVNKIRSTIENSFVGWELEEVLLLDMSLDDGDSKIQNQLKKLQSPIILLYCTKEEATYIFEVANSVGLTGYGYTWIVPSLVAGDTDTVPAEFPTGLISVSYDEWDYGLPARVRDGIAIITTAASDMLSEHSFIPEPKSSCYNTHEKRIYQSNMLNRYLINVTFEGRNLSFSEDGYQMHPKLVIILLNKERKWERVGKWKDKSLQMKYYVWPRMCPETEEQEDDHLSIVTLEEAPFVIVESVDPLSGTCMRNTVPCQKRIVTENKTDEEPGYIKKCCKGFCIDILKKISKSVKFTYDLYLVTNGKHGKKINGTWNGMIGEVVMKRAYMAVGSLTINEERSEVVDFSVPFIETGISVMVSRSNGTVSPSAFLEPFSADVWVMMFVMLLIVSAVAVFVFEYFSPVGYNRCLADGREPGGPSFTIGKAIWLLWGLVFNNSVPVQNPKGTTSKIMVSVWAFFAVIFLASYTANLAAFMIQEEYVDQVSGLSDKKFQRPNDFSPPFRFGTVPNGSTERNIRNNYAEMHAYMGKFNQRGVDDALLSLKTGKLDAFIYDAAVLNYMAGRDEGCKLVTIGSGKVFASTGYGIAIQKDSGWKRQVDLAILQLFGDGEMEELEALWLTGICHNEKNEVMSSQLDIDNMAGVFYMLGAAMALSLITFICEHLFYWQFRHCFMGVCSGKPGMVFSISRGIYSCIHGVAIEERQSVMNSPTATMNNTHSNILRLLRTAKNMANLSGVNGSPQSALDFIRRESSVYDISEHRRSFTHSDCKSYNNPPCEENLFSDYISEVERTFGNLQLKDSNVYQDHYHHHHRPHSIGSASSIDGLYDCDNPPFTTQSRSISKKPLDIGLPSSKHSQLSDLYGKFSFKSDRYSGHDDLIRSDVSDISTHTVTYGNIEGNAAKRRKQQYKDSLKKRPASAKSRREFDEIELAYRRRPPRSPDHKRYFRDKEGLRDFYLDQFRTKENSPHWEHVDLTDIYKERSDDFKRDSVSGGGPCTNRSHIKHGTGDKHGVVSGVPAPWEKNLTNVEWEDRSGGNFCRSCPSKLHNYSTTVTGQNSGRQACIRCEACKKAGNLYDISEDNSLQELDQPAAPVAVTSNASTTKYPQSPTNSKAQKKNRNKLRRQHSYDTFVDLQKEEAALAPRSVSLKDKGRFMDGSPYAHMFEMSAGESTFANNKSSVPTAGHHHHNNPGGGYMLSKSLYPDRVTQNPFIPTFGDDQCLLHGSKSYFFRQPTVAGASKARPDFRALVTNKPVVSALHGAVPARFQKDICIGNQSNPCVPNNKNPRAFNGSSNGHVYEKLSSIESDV
EXPERIMENTAL_READOUT: IC50

Consider the reported IC50 for these compounds:
SMILES_NOTATION | IC50
Cc1ncc(-c2ccc(F)c(OC(F)F)c2)nc1CN1CCCOC1=O | 39 nM
CC(F)(F)c1cccc(-c2cncc(CN3CCCOC3=O)n2)c1 | 105 nM
Cc1ncc(-c2ccc(F)c(C(F)F)c2)nc1CN1CC2(CC2)OC1=O | 37 nM
C[C@H]1CN(Cc2cncc(-c3cccc(C(C)(F)F)c3)n2)C(=O)O1 | 167 nM
Cc1ncc(-c2cccc(C(C)(F)F)c2)nc1CN1CC2(CC2)OC1=O | 203 nM
C[C@H]1COC(=O)N1Cc1cncc(-c2ccc(Cl)c(OC(F)F)c2)n1 | 86 nM
O=C1OC2(CCN1Cc1cncc(-c3ccc(F)c(OC(F)F)c3)n1)CC2 | 48 nM
Cc1ncc(-c2ccc(F)c(C(F)F)c2)nc1CN1C[C@@H](C)OC1=O | 45 nM

Now for another entry.
[Q] I'd like to know its IC50. The compound in question is Cc1ncc(-c2ccc(F)c(OC(F)F)c2)nc1CN1CCC2(CC2)OC1=O
[A] 74 nM
